target: T1, human PD-1 expressed on cells (human, UniProt Q15116 25-288); assay: flow cytometry, hPD1-293 cells
T1 construct: whole, on cells
T1 sequence (Q15116 25-288): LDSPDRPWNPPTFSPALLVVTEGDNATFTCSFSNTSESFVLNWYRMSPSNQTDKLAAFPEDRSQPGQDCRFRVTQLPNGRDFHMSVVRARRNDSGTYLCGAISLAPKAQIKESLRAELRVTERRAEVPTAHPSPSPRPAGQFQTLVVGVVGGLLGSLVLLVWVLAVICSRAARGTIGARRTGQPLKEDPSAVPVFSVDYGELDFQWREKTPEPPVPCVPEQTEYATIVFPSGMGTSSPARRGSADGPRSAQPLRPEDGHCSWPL
Assay readout: MFI at 68 nM (MFI)
Record the value in MFI, omitting the unit from your answer.

Prompt: Given the binder 24H9 (antibody, human IgG1, V domains shown) VH: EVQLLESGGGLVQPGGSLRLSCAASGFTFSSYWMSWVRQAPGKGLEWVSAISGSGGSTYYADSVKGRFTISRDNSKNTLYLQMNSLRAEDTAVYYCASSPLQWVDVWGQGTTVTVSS VL: DIQMTQSPSSLSASVGDRVTITCRASQGISSWLAWYQQKPGKAPKLLIYSASSLQSGVPSRFSGSGSGTDFTLTISSLQPEDFATYYCQQANSFPFTFGPGTKVDIK , what is its reported MFI at 68 nM?
Response: 59

Prompt: Try this binder next: 23A11 (antibody, human IgG1, V domains shown) VH: QVQLVQSGAEVKKPGSSVKVSCKASGYTFTDYSLHWVRQAPGQGLEWMGEVIPMFDTAYYAQTFQGRVTITADESTSTAYMELSSLRSEDTAVYYCAREPFTMVRGGRYYYYGMDVWGQGTTVTVSS VL: DIQMTQSPSSLSASVGDRVTITCRASQNINKNLNWYQQKPGKAPKLLIYDASNLQSGVPSRFSGSGSGTDFTLTISSLQPEDFATYYCQHSETFGQGTKVEIK
Response: 21.8

Prompt: Try this binder next: 19B10 (antibody, human IgG1, V domains shown) VH: EVQLLESGGGLVQPGGSLRLSCAASGFTFSSYAMHWVRQAPGKGLEWVSGISNSGGNTYYADSVKGRFTISRDNSKNTLYLQMNSLRAEDTAVYYCARDNYYYYMDVWGKGTTVTVSS VL: DIQMTQSPSSLSASVGDRVTITCRASQSVSTWLAWYQQKPGKAPKLLIYAASNLETGVPSRFSGSGSGTDFTLTISSLQPEDFATYYCQQTYSTPYTFGQGTKLEIK
Response: 45.1

Prompt: Try this binder next: 23A8 (antibody, human IgG1, V domains shown) VH: EVQLLESGGGLVQPGGSLRLSCAASGFTFSSSAMHWVRQAPGKGLEWVSGISGSGSSTYYADSVKGRFTISRDNSKNTLYLQMNSLRAEDTAVYYCARDNNYYYYMDVWGKGTTVTVSS VL: DIQMTQSPSSLSASVGDRVTITCRASQSIGTWLAWYQQKPGKAPKLLIYAASTLRSGVPSRFSGSGSGTDFTLTISSLQPEDFATYYCQQSYSTPYTFGQGTKLEIK
Response: 105

Prompt: Try this binder next: 19B6 (antibody, V domains shown) VH: QVQLVQSGAEVKKPGASVKVSCKASGYTFTGYYMHWVRQAPGQGLEWMGIINPSGGSTSYAQKFQGRVTMTRDTSTSTVYMELSSLRSEDTAVYYCAKTAGYDWLPSGLGMDVWGQGTTVTVSS VL: DIQMTQSPSSLSASVGDRVTITCRASQSINSWLAWYQQKPGKAPKLLIYYASSLQSGVPSRFSGSGSGTDFTLTISSLQPEDFATYYCQQGYSVPLSFGQGTKLEIK
Response: 20.8
